Tested on: K-562 leukemia
ASSAY_DETAILS: NCI-60 one-dose screen, 48 h (100 = growth as untreated, 0 = no growth, -100 = all killed)
EXPERIMENTAL_CONTEXT: 10 µM unless noted
The panel holds about 83,000 compounds, 20% with a hit somewhere; the sample as a whole holds those more often.
Rule: growth under 20% gives rule not met, otherwise rule met.

{"columns": ["INPUT_SMILES", "TARGET_OF_ASSAY", "CLASS_ASSIGNMENT"],
 "data": [
  ["Cn1cc(-c2nn3cc(-c4cccs4)nc3s2)c2cc(F)ccc21", "K-562 leukemia", "rule not met"],
  ["CSC(SC)=C(C#N)c1nc2ccccc2s1", "K-562 leukemia", "rule met"],
  ["COC(=O)c1cc(Br)ccc1O", "K-562 leukemia", "rule met"],
  ["NC(=O)c1c(NC(=O)c2cccs2)sc2c1CCC(=O)C2", "K-562 leukemia", "rule not met"],
  ["COc1cnc2c(c1)C(=O)c1c-2n(CCCCl)c(=O)c2ccncc12", "K-562 leukemia", "rule met"],
  ["COc1cc(C(=O)c2c(-c3ccccc3)oc3c(OC)cccc23)cc(OC)c1OC", "K-562 leukemia", "rule not met"],
  ["CC1(C)N=C(N)N=C(N)N1c1cccc(CCc2ccccc2)c1", "K-562 leukemia", "rule met"],
  ["Cc1ccccc1Nc1cc(O)c2c(=O)cc(-c3ccccc3)oc2c1", "K-562 leukemia", "rule not met"]
]}

----------
System: PC-3 prostate
ASSAY_DETAILS: NCI-60 one-dose screen, 48 h
EXPERIMENTAL_CONTEXT: 10 µM unless noted
The panel holds about 83,000 compounds, 20% with a hit somewhere; the sample as a whole holds those more often. The source made the active and inactive calls. Rule for the calls: active = growth percent below 10; inactive = the rest.
Outcomes: True (active), False (inactive)

{"columns": ["COMPOUND", "CLASS_ASSIGNMENT"],
 "data": [
  ["O=C(/C=C/c1ccc(Cl)cc1)c1cccc(OCCCOc2cccc(C(=O)/C=C/c3ccc(Cl)cc3)c2)c1", "False"],
  ["CCc1ccc(CCC(=O)Nc2ncc(Cc3cc(Cl)ccc3Cl)s2)o1", "False"],
  ["COC1=C(C)C(=O)N2[C@@H]1[C@H](c1ccccc1)OC21C=CC(=O)C=C1", "True"],
  ["COc1ccc(Cn2cc3c(c2-c2ccccc2)CCc2cnoc2-3)cc1", "False"],
  ["COC(=O)N1CC(Oc2ccccn2)C2CC1c1ccccc1O2 (stereo not given)", "False"],
  ["O=C(/C=C/c1ccc(Oc2ccc(Br)cc2)cc1)c1ccc(Br)cc1", "False"],
  ["O=C1c2ccccc2C(=O)c2c1cc1c(c2[N+](=O)[O-])OCO1", "True"],
  ["COc1cccc(CCNc2ncnc3c2ncn3Cc2nnc3c4ccccc4c(Cl)nn23)c1", "False"],
  ["C=C(C)[C@@H]1CCC[C@]2(C(=O)N3CCN(C)CC3)CC[C@]3(C)[C@@H](CC[C@@H]4[C@@]5(C)CC/C(=N\\NC(=O)c6ccncc6)C(C)(C)[C@@H]5CC[C@]43C)[C@@H]12", "False"],
  ["COc1ccc(-c2nc3c(N)c(CO)cnc3s2)cc1", "False"]
]}

----------
System: CAKI-1 renal
ASSAY_DETAILS: NCI-60 one-dose screen, 48 h
EXPERIMENTAL_CONTEXT: 10 µM unless noted
The panel holds about 83,000 compounds, 20% with a hit somewhere; the sample as a whole holds those more often. Calls of active or inactive are those of the source. How the source made its calls: active means growth percent below 10; inactive means the rest.
Classes used: active, inactive

{"columns": ["MOLECULE", "CLASS_ASSIGNMENT"],
 "data": [
  ["CN1CCN(CCOc2ccc(-c3cnc4c(-c5cccc(F)c5F)cnn4c3)cc2)CC1", "active"],
  ["Cc1nc2c(=O)nc3s/c(=C\\c4ccco4)c(=O)n3c2nc1C", "inactive"],
  ["N#Cc1cncc(-c2ccc3ncnc(Nc4cccc(Cl)c4)c3c2)c1", "inactive"],
  ["Cc1[nH]c(C2CC(c3ccc(C(F)(F)F)c(F)c3)=NN2c2ccccc2)c(C)c1C(=O)NCC(F)(F)F (stereo not given)", "inactive"],
  ["O=S(=O)(NCCNc1nccc(-c2c(-c3cccc(O)c3)nc3occn23)n1)c1ccc(Br)cc1", "inactive"]
]}

----------
System: U251 CNS
ASSAY_DETAILS: NCI-60 one-dose screen, 48 h (100 = growth as untreated, 0 = no growth, -100 = all killed)
EXPERIMENTAL_CONTEXT: 10 µM unless noted
About 83,000 compounds went through this panel and 20% of them were active in at least one assay; those are over-represented in the sample as a whole.
ASSAY_READOUT: growth (%)

{"columns": ["INPUT_SMILES", "ASSAY_RESULT"],
 "data": [
  ["O=C(N/N=C\\c1ccccc1S(=O)(=O)O)N/N=C/c1ccccc1S(=O)(=O)O", 99.9],
  ["N#Cc1nc(-c2ccccc2)oc1S(=O)(=O)N1CCN(c2ccc(F)cc2)CC1", 82.1],
  ["COC(=O)CCC/C=C\\C[C@H]1C=CC(=O)/C1=C/C[C@@H](O)C/C=C\\CC(F)(F)F", -69.1],
  ["CCSc1oc(C)nc1[P+](c1ccccc1)(c1ccccc1)c1ccccc1", 20.2]
]}

----------
Tested on: OVCAR-3 ovarian
ASSAY_DETAILS: NCI-60 one-dose screen, 48 h (100 = growth as untreated, 0 = no growth, -100 = all killed)
EXPERIMENTAL_CONTEXT: 10 µM unless noted
The panel holds about 83,000 compounds, 20% with a hit somewhere; the sample as a whole holds those more often. Active and inactive are the calls of the source. How the source made its calls: active means growth percent below 10; inactive means the rest.
ASSAY_READOUT: growth

{"columns": ["INPUT_SMILES", "TARGET_OF_ASSAY", "ASSAY_RESULT"],
 "data": [
  ["CC1CCN(C(=S)SCC(=O)NC(=O)c2ccccc2)CC1", "OVCAR-3 ovarian", "111% (inactive)"],
  ["O=C(Nc1ccccc1N1CCCC1=O)c1oc2ccc(F)cc2c1-c1cnn(-c2ccccc2)c1", "OVCAR-3 ovarian", "72.4% [50 µM] (inactive)"],
  ["N#Cc1nc(-c2ccccc2)oc1S(=O)(=O)N1CCN(c2ccc(F)cc2)CC1", "OVCAR-3 ovarian", "51.9% (inactive)"],
  ["Cc1ccc2c(-c3nnc(N)s3)cc(=O)oc2c1C", "OVCAR-3 ovarian", "110% (inactive)"],
  ["CCOC(=O)C1=C(C)C(Cl)=N/C1=C\\c1[nH]c(Cl)c(C)c1C(=O)OCC", "OVCAR-3 ovarian", "116% (inactive)"],
  ["C=C(C)[C@@H]1CCC[C@]2(C(=O)N3CCN(C)CC3)CC[C@]3(C)[C@@H](CC[C@@H]4[C@@]5(C)CC/C(=N\\NC(=O)c6ccncc6)C(C)(C)[C@@H]5CC[C@]43C)[C@@H]12", "OVCAR-3 ovarian", "95.5% (inactive)"],
  ["c1ccc2c(c1)CCCc1nnc3nc4ccccc4n3c1-2", "OVCAR-3 ovarian", "23.6% (inactive)"]
]}

----------
System: NCI-H322M lung
ASSAY_DETAILS: NCI-60 one-dose screen, 48 h
EXPERIMENTAL_CONTEXT: 10 µM unless noted
Compounds without any hit were thinned out: in the full panel of roughly 83,000, 20% have a hit. Active and inactive are the calls of the source. The calls were made as follows: active = growth percent below 10; inactive = the rest.
Outcomes: y for active, n for inactive

{"columns": ["COMPOUND", "CLASS_ASSIGNMENT"],
 "data": [
  ["Cn1cc(-c2csc(-c3c[nH]c4ccc(F)cc34)n2)c2ccnc(Cl)c21", "n"],
  ["CC(=O)c1sc2sc(C(C)=O)c(C)c2c1C", "n"],
  ["Nc1nc(N)c2c(n1)NC(c1ccc(Cl)cc1)C1CCc3ccccc3C1=N2 (centres undefined)", "n"],
  ["CC1(C)[C@@H](O[C@@H]2OC[C@@H](O[C@@H]3O[C@H](CO)[C@@H](O)[C@H](O)[C@H]3O[C@@H]3OC[C@@H](O)[C@H](O)[C@H]3O)[C@H](O)[C@H]2O[C@@H]2O[C@H](CO)[C@@H](O)[C@H](O)[C@H]2O)CC[C@]2(C)[C@H]3CC[C@]45OC[C@@]6(CC[C@](C)(C=O)C[C@H]64)[C@H](O)C[C@@]5(C)[C@]3(C)CC[C@@H]12", "y"],
  ["COc1ccc2c(c1)c(-c1nc(-c3c[nH]c4ncccc34)cs1)cn2CCCN1CCOCC1", "n"],
  ["N=C(N)c1ccc(-c2ccc(-c3ccccc3)s2)cc1", "n"],
  ["COc1cc(OC)c2sc(-c3ccc(-n4cncc4-c4cc(OC)c(OC)c(OC)c4)cc3)nc2c1", "n"],
  ["O=C(CCCCCCN1CC(=O)N2[C@H](c3ccc(Br)cc3)c3[nH]c4ccccc4c3C[C@@H]2C1=O)NO", "n"],
  ["CC1(C)CC(=O)c2c(nn(-c3ccc(Br)cc3)c2-c2cn(-c3ccccc3)nc2-c2cccnc2)C1", "n"],
  ["COc1ccc(Nc2ncccc2/C=C/C(=O)c2cc(OC)c(OC)c(OC)c2)cc1", "n"],
  ["Cc1ccc(C(=O)c2ccc(CC(=O)N=Nc3c(O)[nH]c4ccc(Br)cc34)n2C)cc1", "n"],
  ["CC1=C2[C@@H](CC1)[C@]1(C)O[C@@](C3CCCCC3)(C[C@H]1OC(=O)CO)[C@H]2OC(=O)/C=C/c1ccccc1", "n"],
  ["CCN1C(=O)N(CC)C2C1NC(=S)N2/N=C/c1ccc(OC)cc1 (centres undefined)", "n"],
  ["CS(=O)(=O)c1nnc(-c2ccccc2)s1", "n"],
  ["COc1ccc(CNc2c3ccccc3nc3ccccc23)c(OC)c1", "n"],
  ["CCNC(=O)Oc1ccc(/C(=C(/C)Cc2ccc(OC)cc2)c2ccc(OCCN3CCCCC3)cc2)cc1", "n"],
  ["O=C1/C(=C2\\SC(=S)N(C3CC3)C2=O)SC(=S)N1C1CC1", "n"],
  ["OCCNCCNC(Cc1ccc(Cl)cc1)c1ccccc1 (centres undefined)", "n"],
  ["Nc1ncnc2c1N=C(c1ccc3c(c1)OCO3)CC(c1cccc(Nc3ccnc4cc(C(F)(F)F)ccc34)c1)N2 (centres undefined)", "n"]
]}
